- TARGET OR SYSTEM: Stimulator of interferon genes protein [1-379,R71H,G230A,H232R,R293Q] (Homo sapiens, UniProt Q86WV6, G230A/H232R/R293Q/R71H)
- Construct: 1-379
- Sequence (Q86WV6 whole entry R71H/G230A/H232R/R293Q, looked up): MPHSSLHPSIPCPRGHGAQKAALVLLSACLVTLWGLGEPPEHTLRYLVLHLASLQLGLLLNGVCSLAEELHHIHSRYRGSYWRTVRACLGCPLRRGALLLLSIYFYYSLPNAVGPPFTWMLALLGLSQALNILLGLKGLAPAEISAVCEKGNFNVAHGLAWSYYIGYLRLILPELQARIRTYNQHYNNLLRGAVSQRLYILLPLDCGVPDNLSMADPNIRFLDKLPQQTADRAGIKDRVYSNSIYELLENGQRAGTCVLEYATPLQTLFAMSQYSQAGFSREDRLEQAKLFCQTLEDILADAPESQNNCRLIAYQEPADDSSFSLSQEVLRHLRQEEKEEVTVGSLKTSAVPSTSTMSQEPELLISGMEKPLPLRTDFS
- MEASUREMENT DESCRIPTION: Surface Plasmon Resonance (SPR)
Rule: Kd below 10 µM gives y, anything at or above gives n.

COc1c(C(N)=O)ccc2c1nc(-c1ccc(C)cc1C(=O)O)n2CCn1c(-c2ccc(C)cc2C(=O)O)nc2c(OC)c(C(N)=O)ccc21 = n

**Q:** Identify whether the molecule COc1c(C(N)=O)ccc2c1nc(-c1c(F)cc(F)cc1C(=O)O)n2CCn1c(-c2c(F)cc(F)cc2C(=O)O)nc2c(OC)c(C(N)=O)ccc21 records Kd below 10 µM.
**A:** y

**Q:** Entry to check: COc1c(C(N)=O)cc(F)c2c1nc(-c1c(F)cc(F)cc1C(=O)O)n2CCn1c(-c2c(F)cc(F)cc2C(=O)O)nc2c(OC)c(C(N)=O)cc(F)c21
**A:** y

**Q:** Now the same for COc1c(C(N)=O)ccc2c1nc(-c1ccccc1-c1nn[nH]n1)n2CCn1c(-c2ccccc2-c2nn[nH]n2)nc2c(OC)c(C(N)=O)ccc21
**A:** n

**Q:** # repeat for COc1c(C(N)=O)ccc2c1nc(-c1cc(C)ccc1C(=O)O)n2CCn1c(-c2cc(C)ccc2C(=O)O)nc2c(OC)c(C(N)=O)ccc21
**A:** n

**Q:** Please do the same for COc1c(C(N)=O)ccc2c1nc(-c1ccc(Cl)cc1-c1n[nH]c(=O)o1)n2CCn1c(-c2ccc(Cl)cc2-c2n[nH]c(=O)o2)nc2c(OC)c(C(N)=O)ccc21 as well.
**A:** y

----------
- TARGET OR SYSTEM: Stimulator of interferon genes protein [1-379,R71H,G230A,H232R,R293Q] (Homo sapiens, UniProt Q86WV6, G230A/H232R/R293Q/R71H)
- Construct: 1-379
- MEASUREMENT DESCRIPTION: Surface Plasmon Resonance (SPR)
Classify: met when Kd is strictly less than 0.9 µM; not met when Kd is not.

Example entries begin here.
NC(=O)c1ccc2c(c1)nc(-c1ccccc1C(=O)O)n2CCn1c(-c2ccccc2C(=O)O)nc2cc(C(N)=O)ccc21 [US12415785, Example 2] = not met
COc1c(C(N)=O)ccc2c1nc(-c1ncc(Cl)cc1C(=O)O)n2CCn1c(-c2ncc(Cl)cc2C(=O)O)nc2c(OC)c(C(N)=O)ccc21 [US12415785, Example 31] = not met
COc1c(C(N)=O)ccc2c1nc(-c1c(F)cc(Cl)cc1-c1nn[nH]n1)n2CCn1c(-c2c(F)cc(Cl)cc2-c2nn[nH]n2)nc2c(OC)c(C(N)=O)ccc21 [US12415785, Example 46] = met
COc1c(C(N)=O)ccc2c1nc(-c1c(F)cccc1-c1nn[nH]n1)n2CCn1c(-c2c(F)cccc2-c2nn[nH]n2)nc2c(OC)c(C(N)=O)ccc21 [US12415785, Example 48] = met
CCc1ccc(-c2nc3c(OC)c(C(N)=O)ccc3n2CCn2c(-c3ccc(CC)cc3C(=O)O)nc3c(OC)c(C(N)=O)ccc32)c(C(=O)O)c1 [US12415785, Example 33] = not met

**Q:** Is Kd strictly under 0.9 µM for the entry COc1c(C(N)=O)cc(F)c2c1nc(-c1ccc(Cl)cc1C(=O)O)n2CCn1c(-c2ccc(Cl)cc2C(=O)O)nc2c(OC)c(C(N)=O)cc(F)c21 [US12415785, Example 20] ?
**A:** not met
